Molecular target: L-lactate dehydrogenase (Plasmodium falciparum (isolate CDC / Honduras))
Assay: PfLDH activity inhibition – cell lysate, 3D7 strain, counter-screen for P. falciparum growth inhibition project (AID 2304);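 also: 0% = vehicle and 100% = reference inhibitor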
Conditions: P. falciparum 3D7 crude extract, LDH APAD/NBT absorbance; at 2 µM; stronger effect = higher value
We begin with a simple list: items and their reported inhibition.
Respond with the bare value in %.

INSERT INTO results (molecule, unit_info, experimental_result) VALUES
  ('CC[C@H](C)CNC(=O)c1ccnc(-c2ccc(CN3CCC(N4CCCC4)CC3)cc2)c1', '%', -2);

Asked: Please indicate inhibition recorded for `CC(C)NCc1cccc(-c2ccc(NC(=O)c3ccc(C#N)cc3)cc2)c1`
Given back: 3

Asked: Please indicate inhibition recorded for `COc1cc(C=CC(=O)N2CCC(CCN3CCC(c4c[nH]c5ccccc45)CC3)CC2)cc(OC)c1`
Given back: -5

Asked: Please indicate inhibition recorded for O=C1COC2(CN1CC1CCN(Cc3ccc(O)c(Cl)c3)C1)c1ccccc1-c1ccccc12 (centres undefined)
Given back: 1

Asked: Please indicate inhibition recorded for `CCCCNCc1ccc(-c2nc(CN(CCCN3CCN(C)CC3)C(=O)Nc3cccc(Cl)c3)cs2)cc1`
Given back: 4

Asked: Please indicate inhibition recorded for `CN1CCN(CC(=O)Nc2ccc(-c3csc(-c4nc5ccccc5[nH]4)c3)cc2)CC1`
Given back: -4

Asked: Please indicate inhibition recorded for `O=C(Nc1cccc(C(F)(F)F)c1)NC1CCN(c2ccnc3cc(Cl)ccc23)CC1`
Given back: -2

Asked: Please indicate inhibition recorded for `CC(=NNC(=S)NCCc1ccccc1)c1ccccn1`
Given back: 8

Asked: Please indicate inhibition recorded for `Nc1ncc(-c2ccccc2)cc1-c1nc2cc(Cl)c(F)cc2[nH]1`
Given back: 1

---

Experiment: inhibition of 3D7 malaria parasite growth – strain 3D7 (AID 2306);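 also: 0% = DMSO wells and 100% = chloroquine plus artemisinin control wells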
Details: P. falciparum 3D7 erythrocytic growth, LDH absorbance, 72 h; at 2 µM; stronger effect = higher value
measured.property: growth inhibition (%)
Respond with the bare value in %.

Worked examples, 3 compounds total:
INSERT INTO results (compound, measured_property, unit_info, experimental_result) VALUES
  ('CC(C)C(=O)NC(c1ccc(Cl)cc1)c1ccc2cccnc2c1O (stereo not given)', 'growth inhibition', '%', 91),
  ('O=C(/C=C/c1ccc(Cl)cc1)NCCCCCN1CCC(c2c[nH]c3ccccc23)CC1', 'growth inhibition', '%', 99),
  ('CNC(=O)C(C)N(c1ccc(Cl)cc1)c1nc(C(C)(C)C)cs1 (stereo not given)', 'growth inhibition', '%', 99);

Asked: Please indicate growth inhibition recorded for `CCN(CC)CCN(Cc1ccc(-c2ccc(C(F)(F)F)cc2)cc1)C(=O)Cn1c(CCc2cccc(F)c2F)nc(=O)c2sccc21`
Given back: 96

Asked: Please indicate growth inhibition recorded for `COC(=O)c1cccc(CNCc2cccc(-c3ccc(-c4nc5ccccc5[nH]4)s3)c2)c1`
Given back: 93

Asked: Please indicate growth inhibition recorded for `O=C(/C=C/c1ccc(C(F)(F)F)cc1)NCCCCCN1CCN(C(=O)Nc2ccc(F)c(Cl)c2)CC1`
Given back: 89

Asked: Please indicate growth inhibition recorded for FC(F)(F)c1ccc2nc(-c3cccc(-c4cccc(CNCC5CCCO5)c4)c3)[nH]c2c1 (stereo not given)
Given back: 100

Asked: Please indicate growth inhibition recorded for COc1ccc(S(=O)(=O)NC2CCN(CCCOc3ccnc4cc(Cl)ccc34)C2)cc1OC (stereo not given)
Given back: 91

Asked: Please indicate growth inhibition recorded for CCC(NC(=O)c1ccccc1NC(=O)c1ccc(C)cc1)C(=O)OC (stereo not given)
Given back: 95

Asked: Please indicate growth inhibition recorded for `CCc1ccc(C2CCN(CCCCNC(=O)c3ccc(NC(=O)c4ccc(Cl)cc4)cc3)CC2)c(OCCO)c1`
Given back: 98

---

Test: antimalarial activity against Dd2 strain (AID 2302);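 also: 0% = DMSO untreated growth and 100% = chloroquine plus artemisinin killed control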
Conditions: P. falciparum Dd2 in RBCs, LDH growth readout, 72 h; at 2 µM; stronger effect = higher value
measured.property: growth inhibition (%)
Respond with the bare value in %.

Asked: Please indicate growth inhibition recorded for `COCCN1CCC(N(Cc2ccc(-c3ccc(OC(F)(F)F)cc3)cc2)C(=O)Cn2c(CCc3cccc(F)c3F)cc(=O)c3ccccc32)CC1`
Given back: 92

---

Target: L-lactate dehydrogenase (Plasmodium falciparum (isolate CDC / Honduras))
Test: PfLDH activity inhibition – cell lysate, 3D7 strain, counter-screen for P. falciparum growth inhibition project (AID 2304);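 also: 0% = vehicle and 100% = reference inhibitor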
Conditions: P. falciparum 3D7 crude extract, LDH APAD/NBT absorbance; at 2 µM; stronger effect = higher value
measured.property: inhibition (%)
Respond with the bare value in %.

Worked examples, 4 molecules total:
INSERT INTO results (molecule, measured_property, unit_info, experimental_result) VALUES
  ('Cc1ncsc1CCN1C(=O)CC2(C1=O)C(=O)N(Cc1ccccc1)c1ccc(Cl)cc12 (stereo not given)', 'inhibition', '%', 1),
  ('NC(N)=Nc1ccc(OCCCCCOc2ccc(N=C(N)N)cc2)cc1', 'inhibition', '%', -1),
  ('O=C(c1ccc(-c2ccc(-c3nc4ccc(C(F)(F)F)cc4[nH]3)s2)cc1)N1CCCCC1CN1CCC(O)C1 (stereo not given)', 'inhibition', '%', 3),
  ('CCc1ccc(CN2CCC(NC(=O)c3cc(-c4ccc(N(C)C)cc4)cs3)C2)cc1 (stereo not given)', 'inhibition', '%', 3);

# input for lookup
Asked: Please indicate inhibition recorded for `O=C(Nc1ccc2c(c1)OCO2)c1cc(-c2cccnc2)nc2ccc(Cl)cc12`
Given back: -3

---

Molecular target: L-lactate dehydrogenase (Plasmodium falciparum (isolate CDC / Honduras)) (UniProt Q27743)
Sequence (Q27743 whole entry, looked up): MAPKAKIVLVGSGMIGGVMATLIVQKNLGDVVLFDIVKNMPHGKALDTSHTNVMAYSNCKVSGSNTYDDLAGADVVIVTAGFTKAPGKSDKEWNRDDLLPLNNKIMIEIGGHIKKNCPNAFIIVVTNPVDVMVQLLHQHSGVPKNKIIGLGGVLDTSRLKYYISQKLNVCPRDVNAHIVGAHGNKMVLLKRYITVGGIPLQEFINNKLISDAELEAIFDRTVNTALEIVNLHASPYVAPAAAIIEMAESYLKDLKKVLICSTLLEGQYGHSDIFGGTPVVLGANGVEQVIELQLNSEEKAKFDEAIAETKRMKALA
Experiment: PfLDH activity inhibition – cell lysate, 3D7 strain, counter-screen for P. falciparum growth inhibition project (AID 2304);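 also: 0% = vehicle and 100% = reference inhibitor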
Settings: P. falciparum 3D7 crude extract, LDH APAD/NBT absorbance; at 2 µM; stronger effect = higher value
We begin with a simple list: items and their reported inhibition.
Respond with the bare value in %.

Worked examples, 4 molecules total:
INSERT INTO results (molecule, experimental_result) VALUES
  ('O=C(NC1CC1)c1ccc(N2CCC(COc3cccc(F)c3)CC2)nc1', 4),
  ('CC(C)(C)c1ccc(C(=O)Nc2cccc(Nc3c(C(=O)NCc4cccc(C(F)(F)F)c4)cnc4c(O)cccc34)c2)cc1', 1),
  ('COC(=O)C(Cc1ccccc1)C(CSCc1ccc(OC)cc1)C(=O)N[C@@H](C(=O)OC(C)(C)C)c1ccc(C(C)(C)C)cc1 (stereo not given in full)', 2),
  ('Cc1cccc2[nH]c(-c3ccc(-c4ccc(CNCc5ccccc5)cc4)s3)nc12', -1);

# input for lookup
Asked: Please indicate inhibition recorded for `Nc1ncnc2cc(-c3cccc(S(N)(=O)=O)c3)sc12`
Given back: 2

---

Assay: human hepatoma cell viability loss – ATP luminescence, cytotoxicity control for P. falciparum antimalarial project, primary screen (AID 2303);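 also: 0% = DMSO wells and 100% = digitonin-killed cells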
Details: HepG2 viability, 24-48 h, at 10 µM, stronger effect = higher value
We begin with a simple list: items and their reported inhibition.
Respond with the bare value in %.

Asked: Please indicate inhibition recorded for `CC(C)c1sc(N2CCN(C)CC2)nc1C(=O)NCCc1cccc(Cl)c1`
Given back: 9

Asked: Please indicate inhibition recorded for `c1ccc(CN2CCC(NCc3ccc(-c4ccc(CNCc5cccnc5)cn4)cc3)CC2)cc1`
Given back: -1

Asked: Please indicate inhibition recorded for `COC(=O)c1cc(NC(=O)Nc2ccc(Cn3ncc(N4CCCNCC4)c(Cl)c3=O)cc2)cc(C(=O)OC)c1`
Given back: -3

Asked: Please indicate inhibition recorded for `CCCN(CC1CC1)c1nc(C)nc2c(-c3ccccc3)cc(C)cc12`
Given back: 72

Asked: Please indicate inhibition recorded for CC(Oc1cc(-n2cnc3ccc(NC(=O)CCN4CCCCC4)cc32)sc1C(N)=O)c1ccccc1Cl (stereo not given)
Given back: 95

Asked: Please indicate inhibition recorded for `COc1ccc2c(c1)ncn2-c1cc(OCc2ccncc2Br)c(C(N)=O)s1`
Given back: 14

---

Molecular target: L-lactate dehydrogenase (Plasmodium falciparum (isolate CDC / Honduras)) (UniProt Q27743)
Test: PfLDH activity inhibition – cell lysate, 3D7 strain, counter-screen for P. falciparum growth inhibition project (AID 2304);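 also: 0% = vehicle and 100% = reference inhibitor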
Conditions: P. falciparum 3D7 crude extract, LDH APAD/NBT absorbance; at 2 µM; stronger effect = higher value
measured.property: inhibition (%)
Respond with the bare value in %.

INSERT INTO assay_data (compound, measured_property, experimental_result) VALUES
  ('Cc1cc2nc(-c3ccc(OCC(=O)NCc4ccc(C(C)(C)C)cc4)cc3)[nH]c2cc1C', 'inhibition', 2),
  ('COc1ccc(NC(=O)/C=C/c2ccccc2Cl)cc1OCCN1CCC(N2CCCC2)CC1', 'inhibition', -1),
  ('COc1ccc(CNCc2ccc(-c3ccc(-c4nc5c(C)cccc5[nH]4)cc3)cc2)cc1', 'inhibition', 2),
  ('Cc1[nH]c(C)c(-c2ccc(OCc3ccc(F)cc3)cc2)c(=O)c1Br', 'inhibition', -2),
  ('Cc1ccc(S(=O)(=O)NC2=NC(C)(C)N(OCc3ccc(Cl)c(Cl)c3)C(N)=N2)cc1', 'inhibition', 3);

Asked: Please indicate inhibition recorded for `O=C(Nc1ccc(Cl)cc1)Nc1ccc(-c2cccc(-c3nc4ccccc4[nH]3)c2)cc1`
Given back: -3

Asked: Please indicate inhibition recorded for `c1ccc2c(c1)ncn2-c1ccnc(Nc2ccncc2)n1`
Given back: -3

Asked: Please indicate inhibition recorded for `COc1ccc(NC(=O)[C@H](CC(C)C)Nc2cc(C)nc(NCCc3ccccc3)n2)cc1`
Given back: -2
